Measured values drawn from patent US20100184802A1 for this set.

Target: P2X7 receptor (IL-1β release from THP-1 cells) (Homo sapiens, UniProt Q99572)
Construct: host or cells: THP-1 cells differentiated with LPS and IFN-γ
Sequence (Q99572 whole entry): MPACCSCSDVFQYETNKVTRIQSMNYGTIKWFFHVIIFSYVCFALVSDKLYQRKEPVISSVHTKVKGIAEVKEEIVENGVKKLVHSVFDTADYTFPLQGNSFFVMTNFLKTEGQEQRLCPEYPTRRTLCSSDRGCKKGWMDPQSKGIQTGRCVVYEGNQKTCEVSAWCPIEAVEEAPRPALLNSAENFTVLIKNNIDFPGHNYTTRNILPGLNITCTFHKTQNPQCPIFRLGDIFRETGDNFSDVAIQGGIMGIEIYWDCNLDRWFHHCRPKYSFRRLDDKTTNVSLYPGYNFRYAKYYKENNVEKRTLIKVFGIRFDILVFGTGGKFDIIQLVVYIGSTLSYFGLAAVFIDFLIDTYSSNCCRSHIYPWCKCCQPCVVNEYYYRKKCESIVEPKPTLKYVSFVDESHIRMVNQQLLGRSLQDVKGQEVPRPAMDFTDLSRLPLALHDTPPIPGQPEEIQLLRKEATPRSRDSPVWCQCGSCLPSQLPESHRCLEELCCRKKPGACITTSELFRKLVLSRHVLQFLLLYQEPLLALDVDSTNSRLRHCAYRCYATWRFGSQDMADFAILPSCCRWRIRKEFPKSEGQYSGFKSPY
Assay: IL-1β release assay in differentiated THP-1 cells stimulated with BzATP (Example 9)
Type: cell-based
Conditions: 0.3 μM concentration, BzATP 250 uM, read-out: IL-1β % Inhib. @ 0.3 or 0.1 μM
Experimental Endpoint: inhibition at 0.3 µM

Sample answers from the record:
Molecule	Result
NC(=O)CCn1ccc2c(NC(=O)CC34CC5CC(CC(C5)C3)C4)cccc2c1=O [Compound 510]	> 76%
CC(C)[C@H](CO)n1ccc2c(NC(=O)CC3CCCCCC3)cccc2c1=O [Compound 591]	> 76%
C[C@@H](C(N)=O)n1ccc2c(NC(=O)CC34CC5CC(CC(O)(C5)C3)C4)cccc2c1=O [Compound 574]	0 to 25%

P2X7 receptor (IL-1β release from THP-1 cells) (Homo sapiens, UniProt Q99572) data for O=C(CC12CC3CC(CC(C3)C1)C2)Nc1cccc2c(=O)n(C[C@@H]3CCCN3)ccc12 [Compound 505] ; its inhibition at 0.3 µM: > 76%

---

Target: P2X7 receptor (IL-1β release from THP-1 cells) (Homo sapiens)
Construct: host or cells: THP-1 cells differentiated with LPS and IFN-γ
Experiment: IL-1β release assay in differentiated THP-1 cells stimulated with BzATP (Example 9)
Format: cell-based
Details: 0.3 μM concentration, BzATP 250 uM, read-out: IL-1β % Inhib. @ 0.3 or 0.1 μM
Reported inhibition at 0.3 µM values follow for various compounds

Compound	inhibition at 0.3 µM
NC(=O)Cn1ccc2c(NC(=O)CC3CCCCCC3)cccc2c1=O [Compound 561]	> 76%
O=C(CC1CCCCC1)Nc1cccc2c(=O)n(C(CO)CO)ccc12 [Compound 550]	51 to 75%
O=C(CC1(O)CCCCCC1)Nc1cccc2c(=O)n(CCO)ccc12 [Compound 520]	51 to 75%
CC(C)[C@H](C(N)=O)n1ccc2c(NC(=O)CC34CC5CC(CC(C5)C3)C4)cccc2c1=O [Compound 528]	> 76%
O=C(CC1CCCCCC1)Nc1cccc2c(=O)n(C[C@H]3CCCN3)ccc12 [Compound 576]	> 76%

Summary for this compound, C[C@H](CO)N1CCc2c(NC(=O)CC34CC5CC(C)(CC(C)(C5)C3)C4)cccc2C1=O [Compound 534] : inhibition at 0.3 µM is > 76%

Summary for this compound, CC1(C)CC(CC(=O)Nc2cccc3c(=O)n([C@@H](C(N)=O)c4ccccc4)ccc23)CC(C)(C)C1 [Compound 593] : inhibition at 0.3 µM is > 76%

Summary for this compound, NC(=O)Cn1ccc2c(NC(=O)CC34CC5CC(CC(C5)C3)C4)cccc2c1=O [Compound 509] : inhibition at 0.3 µM is > 76%

Summary for this compound, CC(C)(CO)n1ccc2c(NC(=O)CC34CC5CC(CC(C5)C3)C4)cccc2c1=O [Compound 613] : inhibition at 0.3 µM is > 76%

Summary for this compound, CC1(C)CC(C)(C)CC(O)(CC(=O)Nc2cccc3c(=O)n(C(CO)CO)ccc23)C1 [Compound 573] : inhibition at 0.3 µM is > 76%

Summary for this compound, CC1(C)CC(C)(C)CC(O)(CC(=O)Nc2cccc3c(=O)n(CCO)ccc23)C1 [Compound 546] : inhibition at 0.3 µM is > 76%

Summary for this compound, C[C@@H](CO)N1CCc2c(NC(=O)CC34CC5CC(C)(CC(C)(C5)C3)C4)cccc2C1=O [Compound 535] : inhibition at 0.3 µM is > 76%

---

Target: P2X7 receptor (IL-1β release from THP-1 cells) (Homo sapiens)
Experiment: IL-1β release assay in differentiated THP-1 cells stimulated with BzATP (Example 9)
Details: released IL-1β as in Example 9, four parameter logistic fit
Experimental Endpoint: IC50 (nM)

Sample answers from the record:
Compound	IC50 [nM]
C[C@H](C(N)=O)n1ccc2c(NC(=O)CC34CC5CC(CC(C5)C3)C4)cccc2c1=O [Compound 559]	0.365
O=C(CC12CC3CC(CC(C3)C1)C2)Nc1cccc2c(=O)n(C[C@H]3CCCN3)ccc12 [Compound 506]	1
CC(C)[C@H](C(=O)O)n1ccc2c(NC(=O)CC3CCCCCC3)cccc2c1=O [Compound 610]	44.7
NC(=O)[C@@H](CC1CCCCC1)n1ccc2c(NC(=O)CC34CC5CC(CC(C5)C3)C4)cccc2c1=O [Compound 513]	33.7
C[C@@H](C(N)=O)n1ccc2c(NC(=O)CC3CCCCCC3)cccc2c1=O [Compound 554]	12.3
O=C(CC1CCCCC1)Nc1cccc2c(=O)n(CCO)ccc12 [Compound 545]	906
O=C(CC12CC3CC(CC(C3)C1)C2)Nc1cccc2c(=O)n(CCO)ccc12 [Compound 511]	1.34
CC(C)[C@H](C(=O)NC1CC1)n1ccc2c(NC(=O)CC3CCCCCC3)cccc2c1=O [Compound 595]	20.7

1 = C[C@H](CO)n1ccc2c(NC(=O)CC34CC5CC(C)(CC(C)(C5)C3)C4)cccc2c1=O [Compound 525]
2 = CC(C)C(CO)n1ccc2c(NC(=O)CC3CCCCCC3)cccc2c1=O (centres unmarked) [Compound 538]
q: Given the listed items, does 1 or 2 have the lesser reported IC50? # reply format: chosen label
a: 2

---

Target: P2X7 receptor (IL-1β release from THP-1 cells) (Homo sapiens)
Test: IL-1β release assay in differentiated THP-1 cells stimulated with BzATP (Example 9)
Conditions: released IL-1β as in Example 9, four parameter logistic fit
Experimental Endpoint: IC50 (nM)

Sample answers from the record:
Molecule	IC50, nM
CC(C)[C@H](C(=O)NC1CC1)n1ccc2c(NC(=O)CC34CC5CC(CC(C5)C3)C4)cccc2c1=O [Compound 594]	303
C[C@@H](CO)N1CCc2c(NC(=O)CC34CC5CC(C)(CC(C)(C5)C3)C4)cccc2C1=O [Compound 535]	0.341
CC1(C)CCCC(O)(CC(=O)Nc2cccc3c(=O)n(C(CO)CO)ccc23)C1 (centres unmarked) [Compound 553]	203
CC(C)C(CO)n1ccc2c(NC(=O)CC34CC5CC(CC(C5)C3)C4)cccc2c1=O (centres unmarked) [Compound 516]	0.049

P = CC(C)[C@H](CO)n1ccc2c(NC(=O)CC3CCCCCC3)cccc2c1=O [Compound 591]
Q = O=C(CC1CCCCC1)Nc1cccc2c(=O)n(C(CO)CO)ccc12 [Compound 550]
R = CC(C)C[C@H](CO)n1ccc2c(NC(=O)CC34CC5CC(CC(C5)C3)C4)cccc2c1=O [Compound 585]
S = CC(C)[C@H](C(N)=O)n1ccc2c(NC(=O)CC3CCCCCC3)cccc2c1=O [Compound 597]
q: Please order the records by their reported IC50, lowest number first. # respond with the labels, arranged in the requested order
a: R, S, P, Q
(R: 1.38 nM, S: 2.38 nM, P: 3.42 nM, Q: 266 nM)

---

Biological target: P2X7 receptor (IL-1β release from THP-1 cells) (Homo sapiens, UniProt Q99572)
Test: IL-1β release assay in differentiated THP-1 cells stimulated with BzATP (Example 9)
Settings: released IL-1β as in Example 9, four parameter logistic fit
Experimental Endpoint: IC50 (µM)

Sample answers from the record:
Molecule	IC50 / µM
CC1(C)CCCC(O)(CC(=O)Nc2cccc3c(=O)n(CCO)ccc23)C1 (stereo not drawn)	0.287
C[C@@H](C(N)=O)n1ccc2c(NC(=O)CC34CC5CC(CC(C5)C3)C4)cccc2c1=O	0.00121
O=C(CC12CC3CC(CC(C3)C1)C2)Nc1cccc2c(=O)n(C[C@@H]3CCCN3)ccc12	0.00065
NC(=O)Cn1ccc2c(NC(=O)CC3CCCCCC3)cccc2c1=O	0.0382

A = C[C@H](C(N)=O)n1ccc2c(NC(=O)CC3CCCCCC3)cccc2c1=O
B = CC1(C)CC(CC(=O)Nc2cccc3c(=O)n(CCO)ccc23)CC(C)(C)C1
C = C[C@@H](C(N)=O)n1ccc2c(NC(=O)CC3(O)CCCCCC3)cccc2c1=O
q: Could you please sort these 3 entries by IC50 from high to low? # respond with the labels, arranged in the requested order
a: C, A, B

---

Test: Half-life in human liver microsomes (HLM)
Format: in vitro ADME
Details: human liver microsomes (HLM, HL101); human liver microsomes 0.78 mg/mL, 1 μM compound, NADPH, pH 7.4, 37° C.
Experimental Endpoint: half-life at 1 μM (min)

Sample answers from the record:
Molecule	Number
C[C@@H](C(N)=O)n1ccc2c(NC(=O)CC34CC5CC(CC(C5)C3)C4)cccc2c1=O	40.8
C[C@H](CO)n1ccc2c(NC(=O)CC3CCCCCC3)cccc2c1=O	23.4
CC12CC3CC(C)(C1)CC(CC(=O)Nc1cccc4c(=O)n(CC5CCNCC5)ccc14)(C3)C2	324
O=C(CC12CC3CC(CC(C3)C1)C2)Nc1cccc2c1CCN(C(CO)CO)C2=O	49.8
O=C(CC12CC3CC(CC(C3)C1)C2)Nc1cccc2c(=O)n(CC3CCNCC3)ccc12	22.8
O=C(CC1CCCCCC1)Nc1cccc2c(=O)n(CCO)ccc12	20.4
C[C@H](C(N)=O)n1ccc2c(NC(=O)CC34CC5CC(CC(C5)C3)C4)cccc2c1=O	16.2
C[C@H](C(N)=O)n1ccc2c(NC(=O)CC3CCCCCC3)cccc2c1=O	61.2
C[C@H](CO)n1ccc2c(NC(=O)CC34CC5CC(CC(C5)C3)C4)cccc2c1=O	28.8
NC(=O)[C@@H](CO)n1ccc2c(NC(=O)CC34CC5CC(CC(C5)C3)C4)cccc2c1=O	42

A = CC12CC3CC(C)(C1)CC(CC(=O)Nc1cccc4c(=O)n(C(CO)CO)ccc14)(C3)C2
B = C[C@H](C(=O)O)n1ccc2c(NC(=O)CC34CC5CC(CC(C5)C3)C4)cccc2c1=O
q: Given the listed items, does A or B have the lesser reported half-life at 1 μM? # reply format: chosen label
a: B

P = C[C@H](CO)N1CCc2c(NC(=O)CC34CC5CC(CC(C5)C3)C4)cccc2C1=O
Q = O=C(CC1(O)CCCCCC1)Nc1cccc2c(=O)n(CCO)ccc12
q: Given the listed items, does P or Q have the lesser reported half-life at 1 μM? # reply format: chosen label
a: P
(P: 37.8 min, Q: 72.6 min)
